molecular target: Disintegrin and metalloproteinase domain-containing protein 10 (Homo sapiens); test: human ADAM10 inhibitors, confirmation, biochemical, QFRET, triplicate (AID 743208); details: ADAM10 QFRET peptide cleavage, EDANS fluorescence; at 6.95 µM; hits give high values;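 also: 0% = DMSO wells and 100% = marimastat wells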
The campaign covered roughly 2,100 compounds. About 30 (1%) were called active. These entries were drawn from the full list.
OBSERVABLE: inhibition

Worked set:
>>> df
                                   compound                       experimental_system            result
0  O=S(=O)(c1ccccc1)N(Cc1cccc(F)c1)c1ccccc1  Disintegrin and metalloproteinase domain-containing protein 10 (Homo sapiens)  3.92% (inactive)
1  COc1cccc(NC(=O)CN2CCN(c3nc(-c4cccc(OC)c4)cs3)CC2)c1  Disintegrin and metalloproteinase domain-containing protein 10 (Homo sapiens)  8.73% (inactive)
2  O=C(CNC(=O)c1ccc(Cl)cc1Cl)NCC(=O)Nc1ccccc1N1CCOCC1  Disintegrin and metalloproteinase domain-containing protein 10 (Homo sapiens)  0.46% (inactive)
3  O=C(Oc1cccc(N2C(=O)C3C4c5ccccc5C(c5ccccc54)C3C2=O)c1)c1ccco1 (stereo not given)  Disintegrin and metalloproteinase domain-containing protein 10 (Homo sapiens)  3.26% (inactive)
4  COc1cc(/C=N/O)cc(Br)c1OS(=O)(=O)c1ccc(C)cc1  Disintegrin and metalloproteinase domain-containing protein 10 (Homo sapiens)  2.32% (inactive)

Prompt: Item under review: CC(C)(C)OC(=O)CNC(=O)c1[nH]cnc1C(=O)N[C@@H](Cc1ccccc1)C(=O)OCc1ccccc1 . Reported inhibition?
Response: 6.97% (inactive)

Prompt: Item under review: Cc1ccc(NC(=O)c2nc[nH]c2C(=O)N[C@@H](CCCCNC(=O)OC(C)(C)C)C(=O)OC(C)(C)C)cc1 . Reported inhibition?
Response: 11.2% (inactive)

Prompt: Item under review: Cc1cc(Nc2ccccc2)n(C(=O)c2ccc(N)cc2)n1 . Reported inhibition?
Response: 2.25% (inactive)

Prompt: Item under review: O=C(NC(Cc1c[nH]c2ccccc12)C(=O)N/N=C/c1ccc(Br)cc1)c1cccs1 (stereo not given) . Reported inhibition?
Response: 9.54% (inactive)

Prompt: Item under review: CC1(C)C=Cc2c(ccc3c2OC[C@@H](c2ccc(O)cc2O)C3)O1 . Reported inhibition?
Response: 9.96% (inactive)

Prompt: Item under review: CCC(C)(C)c1ccc(Oc2ccc(NC(=O)COC(=O)C3=COCCO3)cc2)cc1 . Reported inhibition?
Response: 9.01% (inactive)

====

target: Disintegrin and metalloproteinase domain-containing protein 10 (Homo sapiens); assay: human ADAM10 inhibitors, confirmation, biochemical, QFRET, triplicate (AID 743208); settings: ADAM10 QFRET peptide cleavage, EDANS fluorescence; at 6.95 µM; hits give high values;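 also: 0% = DMSO wells and 100% = marimastat wells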
Out of some 2,100 compounds screened, about 30 (1%) were called active. These entries were drawn from the full list.
OBSERVABLE: inhibition (%)
Reply with just the number (in %).

Worked set:
In [3]: df
Out[3]:
                                   molecule  number
0  O=C(/C=C/c1ccc(F)cc1)NC(=S)NNC(=O)c1cccnc1    0.49
1  O=C(CC(O)(C(F)(F)F)C(F)(F)F)Nc1ccc(Cl)c(Cl)c1    2.03
2  O=C1[C@H]2[C@@H](c3ccc(F)cc3)N3C(=O)N(c4ccc(C(F)(F)F)cc4)C(=O)[C@@]3(Cc3ccccc3)[C@H]2C(=O)N1C1CCCCC1    8.51

Prompt: Record COc1cccc(CC2(CO)CCCN(Cc3ccc(OC(F)F)cc3)C2)c1 (stereo not given) : what is its inhibition with Disintegrin and metalloproteinase domain-containing protein 10 (Homo sapiens)?
Response: -1.93

Prompt: Record COc1ccc(Cl)cc1NC(=O)COC(=O)C(CC(C)C)N1C(=O)C2CC=CCC2C1=O (stereo not given) : what is its inhibition with Disintegrin and metalloproteinase domain-containing protein 10 (Homo sapiens)?
Response: 2.32

Prompt: Record COc1ccc(C(=O)NN2C(=O)C3C(c4ccccc4)C=CC(c4ccccc4)C3C2=O)cc1 (stereo not given) : what is its inhibition with Disintegrin and metalloproteinase domain-containing protein 10 (Homo sapiens)?
Response: 6.22

Prompt: Record O=C1[C@H]2[C@@H](c3ccc(C(F)(F)F)cc3)N[C@]3(CCCN(Cc4ccc(Br)cc4)C3=O)[C@H]2C(=O)N1Cc1ccccc1 : what is its inhibition with Disintegrin and metalloproteinase domain-containing protein 10 (Homo sapiens)?
Response: 6.04

Prompt: Record O=C(NCc1ccccc1)c1onc(CSc2nc3ccccc3[nH]2)c1C(=O)NCc1ccccc1 : what is its inhibition with Disintegrin and metalloproteinase domain-containing protein 10 (Homo sapiens)?
Response: 5.46

Prompt: Record CC(C)(C)c1ccc(C(=O)Nc2cc(Cl)c(Br)cc2C(=O)O)cc1 : what is its inhibition with Disintegrin and metalloproteinase domain-containing protein 10 (Homo sapiens)?
Response: 3.89

Prompt: Record c1ccc2c(CCN3CCNC[C@H]3Cc3cccc4ccccc34)cccc2c1 : what is its inhibition with Disintegrin and metalloproteinase domain-containing protein 10 (Homo sapiens)?
Response: 5.45

Prompt: Record COC(=O)C1NN=C(C(=O)c2ccc(Br)cc2)C1c1cccc(Br)c1 (stereo not given) : what is its inhibition with Disintegrin and metalloproteinase domain-containing protein 10 (Homo sapiens)?
Response: 3.07

Prompt: Record Cc1ccc(N(NC(=O)C(C)(C)O)C(=O)c2ccccc2)cc1C : what is its inhibition with Disintegrin and metalloproteinase domain-containing protein 10 (Homo sapiens)?
Response: 0.68

Prompt: Record CCOc1ccc(Nc2oc(Cc3ccccc3)nc2C#N)cc1 : what is its inhibition with Disintegrin and metalloproteinase domain-containing protein 10 (Homo sapiens)?
Response: 1.49

Prompt: Record COc1ccccc1CC1(C)C(=O)Nc2ccc(OC(F)(F)F)cc21 (stereo not given) : what is its inhibition with Disintegrin and metalloproteinase domain-containing protein 10 (Homo sapiens)?
Response: 0.74

Prompt: Record CC(C)Oc1cc(F)ccc1-c1cc(C(=O)Nc2cccc(Cl)c2)[nH]n1 : what is its inhibition with Disintegrin and metalloproteinase domain-containing protein 10 (Homo sapiens)?
Response: 9.22

Prompt: Record CCC1(C)Cc2c(sc3nnn(CC(=O)Nc4ccc(Cl)cc4)c(=O)c23)CO1 (stereo not given) : what is its inhibition with Disintegrin and metalloproteinase domain-containing protein 10 (Homo sapiens)?
Response: 6.24

Prompt: Record Cc1ccc(/C=N/NC(=O)CSc2nc3ccccc3o2)cc1 : what is its inhibition with Disintegrin and metalloproteinase domain-containing protein 10 (Homo sapiens)?
Response: 0.27

====

target: Disintegrin and metalloproteinase domain-containing protein 10 (Homo sapiens); test: human ADAM10 inhibitors, confirmation, biochemical, QFRET, triplicate (AID 743208); conditions: ADAM10 QFRET peptide cleavage, EDANS fluorescence; at 6.95 µM; hits give high values;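 also: 0% = DMSO wells and 100% = marimastat wells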
Out of some 2,100 compounds screened, about 30 (1%) were called active. These entries were drawn from the full list.
Class Criterion met: inhibition at least 6%. Class Criterion not met: inhibition below 6%.

In [3]: df
Out[3]:
                                   molecule              class
0  O=C(COC(=O)CCCSc1nc2ccccc2[nH]1)Nc1ccc(Oc2ccccc2)cc1      Criterion met
1  COc1cc(Cl)c(S(=O)(=O)N2CCN(Cc3ccc4c(c3)OCO4)CC2)cc1Cl  Criterion not met
2  Cc1cc(O)ccc1-c1cc(C(=O)NCc2cc(C(F)(F)F)cc(C(F)(F)F)c2)[nH]n1  Criterion not met
3  C=CCC[C@@H](Cc1ccc(F)cc1)C(=O)OC[C@H](Cc1c[nH]c2ccccc12)NC(=O)[C@@H](CC=C)CC(=O)N(CCO)Cc1ccccc1      Criterion met
4  C=CC[C@H](CC(=O)N(CCO)Cc1ccccc1)C(=O)N[C@@H](COC(=O)[C@@H](CC=C)Cc1ccc(F)cc1)Cc1ccccc1      Criterion met

Prompt: Does the reported inhibition for COc1ccc(C2CC(c3ccccc3)=NN2C(=O)COC(=O)COc2ccccc2)cc1 (centres undefined) fall at or above the 6% mark?
Response: Criterion met

Prompt: Does the reported inhibition for CC(N=Cc1nc(-c2ccccc2)oc1O)c1ccccc1 (centres undefined) fall at or above the 6% mark?
Response: Criterion not met

Prompt: Does the reported inhibition for C=CCC[C@@H](Cc1ccc(F)cc1)C(=O)O[C@H](CNC(=O)[C@H](CC=C)CC(=O)N(CCO)Cc1ccccc1)c1ccccc1 fall at or above the 6% mark?
Response: Criterion met

====

target: Disintegrin and metalloproteinase domain-containing protein 10 (Homo sapiens) (UniProt O14672); experiment: human ADAM10 inhibitors, confirmation, biochemical, QFRET, triplicate (AID 743208); conditions: ADAM10 QFRET peptide cleavage, EDANS fluorescence; at 6.95 µM; hits give high values;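 also: 0% = DMSO wells and 100% = marimastat wells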
Sequence (O14672 214-748 limits assumed): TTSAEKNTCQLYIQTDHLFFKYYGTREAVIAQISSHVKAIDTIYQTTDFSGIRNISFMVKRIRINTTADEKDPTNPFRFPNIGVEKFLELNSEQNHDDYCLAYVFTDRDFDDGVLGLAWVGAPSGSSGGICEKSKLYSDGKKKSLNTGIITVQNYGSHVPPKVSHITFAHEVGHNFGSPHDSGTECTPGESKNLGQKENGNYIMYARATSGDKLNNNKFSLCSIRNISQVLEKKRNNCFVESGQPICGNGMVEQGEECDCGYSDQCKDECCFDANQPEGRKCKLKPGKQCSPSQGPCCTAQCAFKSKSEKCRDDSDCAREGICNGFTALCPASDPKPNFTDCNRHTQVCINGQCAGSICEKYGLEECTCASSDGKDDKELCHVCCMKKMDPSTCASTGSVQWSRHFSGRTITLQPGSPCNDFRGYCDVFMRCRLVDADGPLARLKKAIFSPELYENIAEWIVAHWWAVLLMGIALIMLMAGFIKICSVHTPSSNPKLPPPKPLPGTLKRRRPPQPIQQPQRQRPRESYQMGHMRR
The whole screen tested about 2,100 compounds, of which about 30 (1%) were called active. A selection follows.
OBSERVABLE: inhibition (%)
Reply with just the number (in %).

Worked set:
In [3]: df
Out[3]:
                                   compound  number
0  CCOc1cc(NC(=O)c2ccccc2C(=O)O)c(OCC)cc1NC(=O)c1ccccc1F    3.74
1  COc1ccc(C(CCN(Cc2ccc(OC)c(OC)c2)C(=O)CCl)c2ccccc2)cc1 (stereo unspecified)    2.71
2  CCCC(=O)n1nc(NCc2ccc(OC)cc2)nc1NCc1ccc(OC)cc1    9.12
3  C=C(C)COc1ccc(-c2n[nH]c(C)c2-c2ccccc2)c(O)c1    5.81

Prompt: Item under review: Cc1csc(NC(=S)Nc2cccc(Cl)c2)n1 . Reported inhibition?
Response: 7.9

Prompt: Item under review: COc1ccc([C@@H]2[C@@H]3C(=O)N(C(C)(C)C)C(=O)[C@@H]3[C@]3(Cc4ccccc4)C(=O)N(c4cccc(Br)c4)C(=O)N23)cc1 . Reported inhibition?
Response: 5.88

Source listed as PubChem BioAssay AID743208.
